# Measurement target: USP8 Rhod domain (Homo sapiens)
# Construct: USP8 Rhod (174–317) (UniProt: P40818); GST (cleaved yes); made in house; host or cells: Escherichia coli BL21-Gold (DE3)
# Method notes: Peptide-phage display-based deep mutational scanning (DMS), USP8 Rhod domain
# Assay type: binding
# Assay setup: bait USP8_Rhodanese__P40818_174_317; wild-type/mutant pair ratio of averaged fractions; negative values where mutant fraction is higher
# Protocol: Four rounds of phage selections were carried out using the second generation human disorderome library or the constructed deep mutational scanning library. At least three individual replicates were used for each bait protein. […] The samples were prepared for NGS as previously described. […] The dsDNA was quantified using QuantiT PicoGreen dsDNA Assay Kit (Thermo Fisher) and sent for NGS (Illumina MiSeq v3, 1 × 150 bp read setup, 20% PhiX, NGI SciLifeLab facility, Sweden). […]
# hit_pair_ratio per record follows
Enter a number only.

query_sequence=GLALWEAKMKQLLERA measured_result=31.22

get_value(item= GLALWEAKMSQLAERA , readout=hit_pair_ratio) returns -7.21

get_value(item= GLALWEAKMKTLAERA , readout=hit_pair_ratio) returns 33.74

get_value(item= GLALWEAKMKQLGERA , readout=hit_pair_ratio) returns -3.00

get_value(item= GLALWEAKMKQLAEQA , readout=hit_pair_ratio) returns -4.51

get_value(item= GLALWEAKMKQLAERP , readout=hit_pair_ratio) returns -3.73

get_value(item= GLALWEAKMIQLAERA , readout=hit_pair_ratio) returns 19.96

get_value(item= HMERVLGGLSSPLRLL , readout=hit_pair_ratio) returns -2.43

get_value(item= GLALWEAKMKQIAERA , readout=hit_pair_ratio) returns 1107.01

get_value(item= GLALWEAKMKQLATRA , readout=hit_pair_ratio) returns 553.50

get_value(item= GLALWEAKMKQLAEVA , readout=hit_pair_ratio) returns 195.90

get_value(item= GLALWEAKMKDLAERA , readout=hit_pair_ratio) returns -1.51

get_value(item= GLALWEAKMQQLAERA , readout=hit_pair_ratio) returns 31.63

get_value(item= GLALWEAKMKQLANRA , readout=hit_pair_ratio) returns 73.80

get_value(item= GLALWEAKMKQLAFRA , readout=hit_pair_ratio) returns 24.07

get_value(item= GLALWEAKMKQLAEGA , readout=hit_pair_ratio) returns 5.87

get_value(item= GLALWEAKMKQLAERH , readout=hit_pair_ratio) returns 208.81

get_value(item= GLALWEAKMKLLAERA , readout=hit_pair_ratio) returns -2.26

---

# Measurement target: USP8 Rhod domain (Homo sapiens, UniProt P40818)
# Construct: USP8 Rhod (174–317) (UniProt: P40818); GST (cleaved yes); made in house; host or cells: Escherichia coli BL21-Gold (DE3)
# Method notes: ProP-PD selection against USP8 Rhod domain
# Format: binding
# Assay setup: number of screens against the bait protein in which the peptide has been found
Assay endpoint: Replicates
Enter a number only.

Reference set (3 entries):
query_sequence="QPNHGLALWEAKMKQL [TET3 1701-1716, Methylcytosine dioxygenase TET3 peptide, overlapping]" measurement_target="USP8 Rhod domain (Homo sapiens, UniProt P40818)" measured_result=3
query_sequence="YDTLIIRDYTQSSSSL [GRM5, Metabotropic glutamate receptor 5 peptide 1197-1212]" measurement_target="USP8 Rhod domain (Homo sapiens, UniProt P40818)" measured_result=2
query_sequence="HIWHYDEEYLPDASKP [TTBK2, Tau-tubulin kinase 2 peptide 503-518]" measurement_target="USP8 Rhod domain (Homo sapiens, UniProt P40818)" measured_result=2

Then there is this sequence:
get_value(item= LMNFLGDSNPFNLLRM [BCL11B, B-cell lymphoma/leukemia 11B peptide 279-294] , readout=Replicates) returns 3

---

# Specificity per record follows
# Measurement target: USP8 Rhod domain (Homo sapiens, UniProt P40818)
# Construct: USP8 Rhod (174–317) (UniProt: P40818); GST (cleaved yes); made in house; host or cells: Escherichia coli BL21-Gold (DE3)
# Method notes: ProP-PD selection against USP8 Rhod domain
# Assay type: binding
# Assay setup: proportion for the current bait of the total NGS read counts of the peptide for all baits screened with this library
Enter a number only.

query_sequence="LMNFLGDSNPFNLLRM [BCL11B, B-cell lymphoma/leukemia 11B peptide 279-294]" measured_result=0.9228

get_value(item= HIWHYDEEYLPDASKP [TTBK2, Tau-tubulin kinase 2 peptide 503-518] , readout=Specificity) returns 0.5152

get_value(item= YDTLIIRDYTQSSSSL [GRM5, Metabotropic glutamate receptor 5 peptide 1197-1212] , readout=Specificity) returns 0.5417

get_value(item= QPNHGLALWEAKMKQL [TET3 1701-1716, Methylcytosine dioxygenase TET3 peptide, overlapping] , readout=Specificity) returns 0.8889

---

# Measurement target: USP8 Rhod domain (Homo sapiens, UniProt P40818)
# Construct: USP8 Rhod (174–317) (UniProt: P40818); GST (cleaved yes); made in house; host or cells: Escherichia coli BL21-Gold (DE3)
# Sequence (P40818 174-317): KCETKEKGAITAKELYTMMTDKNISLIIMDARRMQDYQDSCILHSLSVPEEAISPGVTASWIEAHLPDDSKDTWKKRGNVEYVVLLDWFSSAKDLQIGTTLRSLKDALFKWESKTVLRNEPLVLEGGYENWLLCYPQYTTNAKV
# Method notes: Peptide-phage display-based deep mutational scanning (DMS), USP8 Rhod domain
# Assay type: binding
# Assay setup: PSSM, library USP8_DMS, days 2,3; position 7
Hi! Could you tag entries with proportion of amino acid at position 7 (wt G) below 0.02 as t, and those at or above as f? Much appreciated.

Worked examples follow.
substance="KIAA1614_Q5VZ46_569_584 G7K (MERVLGKLSSPLRLLP; peptide 569-584; UniProt Q5VZ46 569-584, looked up, variant G7K)" assigned_label=t
substance="KIAA1614_Q5VZ46_569_584 G7L (MERVLGLLSSPLRLLP; UniProt Q5VZ46 569-584, looked up, variant G575L)" assigned_label=t
substance="KIAA1614_Q5VZ46_569_584 G7I (MERVLGILSSPLRLLP; peptide 569-584; UniProt Q5VZ46 569-584, looked up, variant G7I)" assigned_label=t
substance="KIAA1614_Q5VZ46_569_584 G7S (MERVLGSLSSPLRLLP; UniProt Q5VZ46 569-584, looked up, variant G7S)" assigned_label=t
substance="KIAA1614_Q5VZ46_569_584 G7A (MERVLGALSSPLRLLP; UniProt Q5VZ46 569-584, looked up, variant G7A)" assigned_label=f

Request: Would you kindly verify if proportion of amino acid at position 7 (wt G) of KIAA1614_Q5VZ46_569_584 G7W (MERVLGWLSSPLRLLP; UniProt Q5VZ46 569-584, looked up, variant G7W) is strictly less than 0.02?
Result: t

---

# Measurement target: USP8 Rhod domain (Homo sapiens, UniProt P40818)
# Construct: USP8 Rhod (174–317) (UniProt: P40818); GST (cleaved yes); made in house; host or cells: Escherichia coli BL21-Gold (DE3)
# Sequence (P40818 174-317): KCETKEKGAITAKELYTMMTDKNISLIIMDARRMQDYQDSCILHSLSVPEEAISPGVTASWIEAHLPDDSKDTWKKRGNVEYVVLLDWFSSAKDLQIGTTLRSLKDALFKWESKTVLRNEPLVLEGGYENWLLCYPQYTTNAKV
# Method notes: Peptide-phage display-based deep mutational scanning (DMS), USP8 Rhod domain
# Assay type: binding
# Assay setup: ProP-PD pairs, bait USP8_Rhodanese__P40818_174_317; wild-type/mutant pair, wild type KIAA1614 569-584 GMERVLGGLSSPLRLL (wt_00013)
# hit_pair_ratio per record follows
Enter a number only.

Reference set (5 entries):
query_sequence=GMERVQGGLSSPLRLL measured_result=107.32
query_sequence=GMFRVLGGLSSPLRLL measured_result=321.97
query_sequence=GMERVLKGLSSPLRLL measured_result=131.67
query_sequence=GMELVLGGLSSPLRLL measured_result=160.99
query_sequence=GMERVLGGISSPLRLL measured_result=4.20

get_value(item= GMHRVLGGLSSPLRLL , readout=hit_pair_ratio) returns 16.95

get_value(item= GMERLLGGLSSPLRLL , readout=hit_pair_ratio) returns 5.91

get_value(item= GMERVLTGLSSPLRLL , readout=hit_pair_ratio) returns -43.42

get_value(item= GMLRVLGGLSSPLRLL , readout=hit_pair_ratio) returns 32.20

get_value(item= GMYRVLGGLSSPLRLL , readout=hit_pair_ratio) returns 17.24

get_value(item= GSERVLGGLSSPLRLL , readout=hit_pair_ratio) returns -3.84

get_value(item= GMERVLGNLSSPLRLL , readout=hit_pair_ratio) returns 160.99

get_value(item= GMERVLDGLSSPLRLL , readout=hit_pair_ratio) returns -20.23

get_value(item= IMERVLGGLSSPLRLL , readout=hit_pair_ratio) returns 24.34

get_value(item= GMERVLGVLSSPLRLL , readout=hit_pair_ratio) returns 14.78

get_value(item= GGERVLGGLSSPLRLL , readout=hit_pair_ratio) returns -22.40
